Test Details: Solubility of free base 1-11 at room temperature in 0.05M aqueous buffers, water, organic solvents and HPβCD
Assay type: physicochemical
Assay Setup: 50% aqueous Can (probably ACN, acetonitrile), aqueous with cosolvent or surfactant or cyclodextrin; 50% Aqueous Can, room temperature
Where a name gives a salt, the structure may show the parent alone.
Test Readout: solubility (µg/mL)

- Compound: "CS(=O)(=O)N1CCN(Cc2ccc3[nH]c(-c4cc5ccccc5[nH]c4=O)cc3c2)CC1 [Salt 1-11]"
  Value Reported: 60

* * *

Test Details: Solubility of free base 1-11 at room temperature in 0.05M aqueous buffers, water, organic solvents and HPβCD
Type: physicochemical
Assay Setup: pH 3, aqueous with cosolvent or surfactant or cyclodextrin; 10% HPβCD, pH adjusted to ca. 3.0 with HCl
Structures can show the parent of a compound that is named as a salt.

- Compound: "CS(=O)(=O)N1CCN(Cc2ccc3[nH]c(-c4cc5ccccc5[nH]c4=O)cc3c2)CC1 [Salt 1-11]"
  solubility, µg/mL: 1740

* * *

Test Details: Solubility and pH of salts of 4-9 prepared in situ
Type: physicochemical
Assay Setup: pH of the liquid residue of the sample
Structures can show the parent of a compound that is named as a salt.
Test Readout: pH

- Molecule: "COCCN(C)CCOc1ccc2[nH]c(-c3cc4ccccc4[nH]c3=O)cc2c1 [HCl salt of 4-9]"
  Value Reported: 2.34
- Molecule: "COCCN(C)CCOc1ccc2[nH]c(-c3cc4ccccc4[nH]c3=O)cc2c1 [4-9 Free Base]"
  Value Reported: 6.75
- Molecule: "COCCN(C)CCOc1ccc2[nH]c(-c3cc4ccccc4[nH]c3=O)cc2c1 [Sulfate salt of 4-9]"
  Value Reported: 1.40
- Molecule: "COCCN(C)CCOc1ccc2[nH]c(-c3cc4ccccc4[nH]c3=O)cc2c1 [Mesylate 4-9B]"
  Value Reported: 5.08

* * *

Test Details: Solubility of free base 1-11 at room temperature in 0.05M aqueous buffers, water, organic solvents and HPβCD
Assay type: physicochemical
Assay Setup: 25% HPβCD in water, aqueous with cosolvent or surfactant or cyclodextrin; 25% HPβCD, native pH in water (pH = 7.5)
Where a name gives a salt, the structure may show the parent alone.

- Compound: "CS(=O)(=O)N1CCN(Cc2ccc3[nH]c(-c4cc5ccccc5[nH]c4=O)cc3c2)CC1 [Salt 1-11]"
  solubility (µg/mL): 168

* * *

Documented pH across a set of compounds
Test Details: Measurement of salt solubility: free base 1-11 treated with acid, suspended in water, HPLC
Type: physicochemical
Assay Setup: pH in equilibrium with the solid phase; most likely lower than pH of the salt in water
Procedure: The pH and concentration of the compound in equilibrium with the solid phase was measured by HPLC (UV-Vis detection).
Where a name gives a salt, the structure may show the parent alone.
Test Readout: pH

- Compound: "CS(=O)(=O)N1CCN(Cc2ccc3[nH]c(-c4cc5ccccc5[nH]c4=O)cc3c2)CC1 [HCl salt of 1-11]"
  Test Readout: "pH"
  Value Reported: 2.3
- Compound: "CS(=O)(=O)N1CCN(Cc2ccc3[nH]c(-c4cc5ccccc5[nH]c4=O)cc3c2)CC1 [Acetate salt of 1-11]"
  Test Readout: "pH"
  Value Reported: 3.3
- Compound: "CS(=O)(=O)N1CCN(Cc2ccc3[nH]c(-c4cc5ccccc5[nH]c4=O)cc3c2)CC1 [Sulfate salt of 1-11]"
  Test Readout: "pH"
  Value Reported: 1.5
- Compound: "CS(=O)(=O)N1CCN(Cc2ccc3[nH]c(-c4cc5ccccc5[nH]c4=O)cc3c2)CC1 [Mesylate salt of 1-11]"
  Test Readout: "pH"
  Value Reported: 2.3
- Compound: "CS(=O)(=O)N1CCN(Cc2ccc3[nH]c(-c4cc5ccccc5[nH]c4=O)cc3c2)CC1 [Besylate salt of 1-11]"
  Test Readout: "pH"
  Value Reported: 2.4
- Compound: "CS(=O)(=O)N1CCN(Cc2ccc3[nH]c(-c4cc5ccccc5[nH]c4=O)cc3c2)CC1 [Maleate salt of 1-11]"
  Test Readout: "pH"
  Value Reported: 2.5
- Compound: "CS(=O)(=O)N1CCN(Cc2ccc3[nH]c(-c4cc5ccccc5[nH]c4=O)cc3c2)CC1 [HBr salt of 1-11]"
  Test Readout: "pH"
  Value Reported: 2.9
